Test system: MCF7 (human breast carcinoma) cell line
assay-method-text: In vitro cytotoxic activity (MTT assay) against MCF7 cells
Type: cell-based
assay-conditions: MTT assay, cultures incubated 24 h with compound, ± standard deviation, three independent experiments
pIC50: −log10 of the molar value.
measured-metric: pIC50

compound: CC(C)N1CCN(C(C)C)C1=[S+][Pt-2]([NH3+])([NH3+])[S+]=C1N(C(C)C)CCN1C(C)C.O=[N+]([O-])[O-].O=[N+]([O-])[O-] [Compound 7, cis-[Pt(NH3)2(iPr2Imt)2].2NO3]
measured-value: 4.11
//
compound: N.N.O=C([O-])C1(C(=O)[O-])CCC1.[Pt+2] [Carboplatin, reference compound]
measured-value: 4.20
//
compound: CN1CCN(C)C1=[S+][Pt-2]([NH3+])([NH3+])[S+]=C1N(C)CCN1C.O=[N+]([O-])[O-].O=[N+]([O-])[O-] [Compound 3, cis-[Pt(NH3)2(Me2Imt)2].2NO3]
measured-value: 4.24
//
compound: O=[N+]([O-])[O-].O=[N+]([O-])[O-].[NH3+][Pt-2]([NH3+])([S+]=C1NCCN1)[S+]=C1NCCN1 [Compound 1, cis-[Pt(NH3)2(Imt)2].2NO3]
measured-value: 4.00
//
compound: O=[N+]([O-])[O-].O=[N+]([O-])[O-].[NH3+][Pt-2]([NH3+])([S+]=C1NCCCCN1)[S+]=C1NCCCCN1 [Compound 10, cis-[Pt(NH3)2(Diap)2].2NO3]
measured-value: 4.15
